src = ChEMBL document CHEMBL1135556

- System Name: Tyrosine-protein phosphatase non-receptor type 6, SHP-1 (Homo sapiens) (UniProt P29350)
- Test Description: Dissociation constant towards SHP-1 receptor-inhibitor complex was determined using PNP as substrate
The label is 1 (yes) for Ki below 40 µM and 0 (no) for Ki equal to or exceeding 40 µM.

See these solved cases before continuing.
{"Compound": "O=C(CBr)c1ccccc1", "Discrete Label": "0 (no)"}
{"Compound": "O=C(CBr)c1cccc2ccccc12", "Discrete Label": "0 (no)"}
{"Compound": "O=C(CBr)c1ccc(O)cc1", "Discrete Label": "0 (no)"}
{"Compound": "O=C(O)COc1ccc(C(=O)CCl)cc1", "Discrete Label": "0 (no)"}
{"Compound": "O=C(CCl)c1ccccc1 [PHENACYL CHLORIDE]", "Discrete Label": "0 (no)"}

## Input Is the reported Ki for `O=C(CCl)c1ccc(F)cc1` strictly below 40 µM?
## Output 0 (no)

## Input Is the reported Ki for `O=C(CBr)c1ccc(-c2ccccc2)cc1` strictly below 40 µM?
## Output 1 (yes)

## Input Is the reported Ki for `O=C(CBr)c1ccc(C(F)(F)F)cc1` strictly below 40 µM?
## Output 1 (yes)

* * *

- System Name: Tyrosine-protein phosphatase non-receptor type 6 (Homo sapiens)
- Sequence (P29350 whole entry): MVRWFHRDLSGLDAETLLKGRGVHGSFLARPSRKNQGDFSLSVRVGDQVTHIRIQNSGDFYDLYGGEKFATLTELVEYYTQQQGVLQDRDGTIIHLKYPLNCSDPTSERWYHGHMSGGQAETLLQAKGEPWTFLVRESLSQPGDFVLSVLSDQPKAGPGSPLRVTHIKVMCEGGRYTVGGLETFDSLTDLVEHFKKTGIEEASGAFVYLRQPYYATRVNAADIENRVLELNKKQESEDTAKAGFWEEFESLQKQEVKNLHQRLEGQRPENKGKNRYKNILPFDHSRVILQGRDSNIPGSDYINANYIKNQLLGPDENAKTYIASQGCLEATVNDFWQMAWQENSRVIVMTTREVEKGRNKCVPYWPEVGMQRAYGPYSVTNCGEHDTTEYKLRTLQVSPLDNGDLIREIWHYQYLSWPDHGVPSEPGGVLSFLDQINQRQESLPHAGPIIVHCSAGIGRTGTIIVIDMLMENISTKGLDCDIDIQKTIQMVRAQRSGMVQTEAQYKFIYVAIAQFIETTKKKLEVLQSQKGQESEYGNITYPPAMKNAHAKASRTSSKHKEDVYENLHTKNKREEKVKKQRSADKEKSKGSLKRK
- Test Description: Dissociation constant towards SHP 1 receptor-inhibitor complex was determined using PNP as substrate
Metric: Ki (µM)
Response body: numeric value in µM, unit text excluded.

## Input Would you kindly share the measured Ki for O=C(O)CCC(NC(=O)[C@H](CCC(=O)O)NC(=O)CNC(=O)COc1ccc(C(=O)CBr)cc1)C(=O)O (stereo partly specified) ?
## Output 29

* * *

- System Name: Tyrosine-protein phosphatase non-receptor type 6, SHP-1 (Homo sapiens)
- Test Description: First-order rate constant (K inact) for conversion of the ExI complex (SHP-1 -inhibitor complex) into the covalent adduct, EI was determined using PNP as substrate
Metric: kinact (min⁻¹)
Response body: numeric value in min⁻¹, unit text excluded.

{"Compound": "O=C(CCl)c1ccc(O)c(O)c1", "kinact / min⁻¹": 0.59}

## Input Would you kindly share the measured kinact for `O=C(CBr)c1ccc(C(F)(F)F)cc1` ?
## Output 0.37

## Input Would you kindly share the measured kinact for `O=C(O)COc1ccc(C(=O)CCl)cc1` ?
## Output 1.8

* * *

- System Name: UniProt:P29350
- Test Description: First-order rate constant (K inact) for conversion of the ExI complex (SHP-1 -inhibitor complex) into the covalent adduct, EI was determined using PNP as substrate
Metric: kinact (min⁻¹)
Response body: numeric value in min⁻¹, unit text excluded.

{"Compound": "O=C(CBr)c1cccc2ccccc12", "System Name": "UniProt:P29350", "kinact [min⁻¹]": 0.86}
{"Compound": "O=C(CBr)c1ccc2ccccc2c1", "System Name": "UniProt:P29350", "kinact [min⁻¹]": 0.48}
{"Compound": "O=C(CCl)c1ccc(F)cc1F", "System Name": "UniProt:P29350", "kinact [min⁻¹]": 2.1}

// below: kinact requested for another compound
## Input Would you kindly share the measured kinact for O=C(CCl)c1ccccc1 [PHENACYL CHLORIDE] ?
## Output 0.21
